# Assay Procedure: chemical genetic growth profiling, strain panel (AID 1159580);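 also: tested at 20 µM; growth read once vehicle control cultures reached saturation at 30 °C; 1 = growth at the plate median or of vehicle wells; lower values mean less growth of the strain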
# Test Context: S. cerevisiae deletion strains, growth OD, locus YIL066C, strain RNR3
The whole screen tested about 5,500 compounds, of which about 2,000 (36%) were called active. About 18% were inconclusive and are not listed. Rule as the data show it: active = normalized growth mostly below about 0.91 (no sharp cut-off); inconclusive = no clear call, values can overlap the other calls; inactive = mostly above about 0.92. The list shows a part of the results.
Thanks in advance; please answer with one of these: true (active), false (inactive)

>>> print(df.to_string())
                                   compound  assigned_class
0      COc1ccc(-c2coc3c(O)c(OC)ccc3c2=O)cc1            true
1  COc1ccc(C[C@H]2NC[C@H](O)[C@H]2OC(C)=O)cc1            true
2  CC(=O)O[C@@](C)(CCC=C(C)C)C1CC=C(C)CC1 (stereo partly drawn)           false
3             COc1ccc(C(=O)c2ccccc2O)c(O)c1           false
4  CC(=O)O[C@]1(C(C)=O)CCC2C3C=C(C)C4=CC(=O)CCC4(C)C3CCC21C (stereo partly drawn)           false

query: Give the logged outcome of this assay for the following compound: `C/C=C(/C(=C/C)c1ccc(O)cc1)c1ccc(O)cc1`
result: false

query: Now consider `O=c1ccc2ccccc2o1` and answer again.
result: false

----------
# Assay Procedure: chemical genetic growth profiling, strain panel (AID 1159580);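 also: tested at 20 µM; growth read once vehicle control cultures reached saturation at 30 °C; 1 = growth at the plate median or of vehicle wells; lower values mean less growth of the strain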
# Test Context: S. cerevisiae deletion strains, growth OD, locus YGR052W, strain FMP48, hits give low values
The whole screen tested about 5,500 compounds, of which about 2,000 (36%) were called active. About 18% were inconclusive and are not listed. Some of the results follow.
Value Kind: normalized growth
Please reply with the value in numeric form only.

In [3]: df
Out[3]:
                                   compound  observed_result
0  Cc1c(Cl)cccc1NC(=S)N1CCCN(c2ccc(C(F)(F)F)cc2[N+](=O)[O-])CC1             1.04
1  O=C(Oc1cc(Cl)c(Cl)cc1Cl)C1c2ccccc2Oc2ccccc21            0.924
2  N#C/C(=C\c1ccccc1Sc1ccc(Cl)cc1)S(=O)(=O)c1ccccn1            0.883
3  Cc1cc(SCc2[nH]nc3oc(=O)cc(C)c23)c(Cl)cc1Cl             1.03
4                   C/C(=N/NC(N)=S)c1ccccn1            0.951
5            NC(N)=Nc1nc(-c2cc(Cl)sc2Cl)cs1            0.935

Consider the additional compound presented here.
query: Suppose we examine the compound `CC(C)(C)C1=NN(c2nc3ccc(Cl)cc3s2)C(=O)C1` ; what normalized growth value has been reported?
result: 0.114

----------
# Assay Procedure: chemical genetic growth profiling, strain panel (AID 1159580);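 also: tested at 20 µM; growth read once vehicle control cultures reached saturation at 30 °C; 1 = growth at the plate median or of vehicle wells; lower values mean less growth of the strain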
# Test Context: S. cerevisiae deletion strains, growth OD, locus YGR078C, strain PAC10, hits give low values
Screen size: about 5,500 compounds; about 2,000 (36%) were called active. Inconclusive results (about 18%) are left out. Some of the results follow.
Some compounds, each annotated with its measured normalized growth.

query: Suppose we examine the compound `C=CC1=C(C(=O)O)N2C(=O)[C@@H](NC(=O)/C(=N/O)c3csc(N)n3)[C@H]2SC1` ; what normalized growth value has been reported?
result: 1.07 (inactive)

query: Now consider `CN(C)/C=C1\C(=O)c2ccccc2N(C)S1(=O)=O` and answer again.
result: 0.982 (inactive)

query: Now consider `C[N+](C)(C)CC(=O)O` and answer again.
result: 0.998 (inactive)

query: Now consider O[C@H]1C=C2CCN3Cc4cc5c(cc4C(C23)[C@@H]1O)OCO5 (stereo partly drawn) and answer again.
result: 0.615 (active)

query: Now consider `CNc1ccccc1C(=O)N1CCc2c([nH]c3ccccc23)C1=O` and answer again.
result: 1.01 (inactive)
